Think of 200 °C as a floor: if melting point stands on it or above, it is true (1); beneath it, false (0).

// known answers, use as guide
[[record]]
compound = "CC(C)c1ccc(COc2ccc(-c3c(-c4ccncc4)nn4c3C(=O)N(CCOCCO)CC4)cc2)cc1"
assignedcategory = "false (0)"

[[record]]
compound = "O=C1c2c(-c3ccc(OCc4ccc(OC(F)(F)F)cc4)cc3)c(-c3ccncc3)nn2CCN1CCO"
assignedcategory = "false (0)"

[[record]]
compound = "CCC(C)c1ccc(COc2ccc(-c3c(-c4ccncc4)nn4c3C(=O)NCC4)cc2)cc1 (stereo not drawn)"
assignedcategory = "true (1)"

[[record]]
compound = "CC(C)c1cc(F)c(COc2ccc(-c3c(-c4ccncc4)nn4c3C(=O)N(CC(O)CO)CC4)cc2)cc1F (stereo not drawn) [Compound 98]"
assignedcategory = "false (0)"

[[record]]
compound = "CC(C)c1ccc(COc2ccc(-c3c(-c4ccncc4)nn4c3C(=O)NCC4)nc2)cc1"
assignedcategory = "false (0)"


**Q:** Confirm if melting point reported for the compound N#Cc1ncc(COc2ccc(-c3c(-c4ccncc4)nn4c3C(=O)NCC4)cc2)cc1Cl is 200 °C or above.
**A:** true (1)

**Q:** Confirm if melting point reported for the compound CC(C)c1ccc(C(CN)Oc2ccc(-c3c(-c4ccncc4)nn4c3C(=O)NCC4)cc2)cc1 (stereo not drawn) is 200 °C or above.
**A:** false (0)

**Q:** Confirm if melting point reported for the compound CC(C)c1ccc(COc2cc(F)c(-c3c(-c4ccncc4)nn4c3C(=O)NCC4)cn2)cc1 is 200 °C or above.
**A:** true (1)

**Q:** Confirm if melting point reported for the compound CC(C)c1ccc(COc2ccc(-c3c(-c4ccncc4)nn4c3CN(C)CC4)cc2)cc1 is 200 °C or above.
**A:** false (0)

**Q:** Confirm if melting point reported for the compound CC(C)c1ccc(C2CNc3cc(-c4c(-c5ccncc5)nn5c4C(=O)NCC5)ccc3O2)cc1 (racemic) is 200 °C or above.
**A:** true (1)

**Q:** Confirm if melting point reported for the compound CC(C)c1ccc(COc2ccc(-c3c(-c4ccncn4)nn4c3CNCC4)cc2)cc1 is 200 °C or above.
**A:** false (0)

**Q:** Confirm if melting point reported for the compound Cc1cc(-c2c(-c3ccncc3)nn3c2C(=O)NCC3)cc(C)c1OCc1ccc(C(C)C)cc1 is 200 °C or above.
**A:** true (1)

**Q:** Confirm if melting point reported for the compound CC(C)c1ccc(COc2ccc(-c3c(-c4ccncc4)nn4c3C(=O)NCC4)cc2C#N)cc1 is 200 °C or above.
**A:** true (1)

**Q:** Confirm if melting point reported for the compound CC(C)c1ccc(COc2ccc(-c3c(-c4ccncc4)nn4c3C(=O)NCC4)c(C#N)c2)cc1 is 200 °C or above.
**A:** true (1)

**Q:** Confirm if melting point reported for the compound O=C1NC2(CNC2)Cn2nc(-c3ccncc3)c(-c3ccc(OCc4ccc(C5CC5)cc4)cc3)c21 is 200 °C or above.
**A:** false (0)

---

reportedEndpoint: melting point (°C)
The answer is to be given in °C; state only the numeric part.

These solved cases illustrate the format of a correct answer.
[[record]]
compound = "CC(C)(C#N)c1ccc(COc2ccc(-c3c(-c4ccncc4)nn4c3C(=O)NCC4)cc2)cc1"
reportedmeasurement = 280

[[record]]
compound = "CC(C)c1ccc(COc2ccc(-c3c(-c4ccnc(N)c4)nn4c3C(=O)NCC4)cc2)cc1"
reportedmeasurement = 267


**Q:** For the compound CC(C)c1ccc(COc2ccc(-c3c(-c4ccncc4)nn4c3C(=O)N(CC(C)(C)O)CC4)cc2)cc1 , what melting point is on record?
**A:** 211

**Q:** For the compound CC(C)c1ccc(COc2ccc(-c3c(-c4ccncc4)nn4c3C(=O)N(C(=O)OC(C)(C)C)CC4)cc2)cc1 , what melting point is on record?
**A:** 147

**Q:** For the compound CC(C)OCC(O)CN1CCn2nc(-c3ccncc3)c(-c3ccc(OCc4ccc(C(C)C)cc4)cc3)c2C1=O (stereo not drawn) , what melting point is on record?
**A:** 148

**Q:** For the compound O=C1c2c(-c3ccc(OCc4ccc(C5CC5)cc4F)cc3)c(-c3ccncc3)nn2CCN1CCO , what melting point is on record?
**A:** 183

---

# studySystem: Ba/F3 cells containing Ros1 with G2032R mutation (Homo sapiens, UniProt P08922, G2032R, cells depend on it, form not given)
# Sequence (P08922 whole entry G2032R, form open): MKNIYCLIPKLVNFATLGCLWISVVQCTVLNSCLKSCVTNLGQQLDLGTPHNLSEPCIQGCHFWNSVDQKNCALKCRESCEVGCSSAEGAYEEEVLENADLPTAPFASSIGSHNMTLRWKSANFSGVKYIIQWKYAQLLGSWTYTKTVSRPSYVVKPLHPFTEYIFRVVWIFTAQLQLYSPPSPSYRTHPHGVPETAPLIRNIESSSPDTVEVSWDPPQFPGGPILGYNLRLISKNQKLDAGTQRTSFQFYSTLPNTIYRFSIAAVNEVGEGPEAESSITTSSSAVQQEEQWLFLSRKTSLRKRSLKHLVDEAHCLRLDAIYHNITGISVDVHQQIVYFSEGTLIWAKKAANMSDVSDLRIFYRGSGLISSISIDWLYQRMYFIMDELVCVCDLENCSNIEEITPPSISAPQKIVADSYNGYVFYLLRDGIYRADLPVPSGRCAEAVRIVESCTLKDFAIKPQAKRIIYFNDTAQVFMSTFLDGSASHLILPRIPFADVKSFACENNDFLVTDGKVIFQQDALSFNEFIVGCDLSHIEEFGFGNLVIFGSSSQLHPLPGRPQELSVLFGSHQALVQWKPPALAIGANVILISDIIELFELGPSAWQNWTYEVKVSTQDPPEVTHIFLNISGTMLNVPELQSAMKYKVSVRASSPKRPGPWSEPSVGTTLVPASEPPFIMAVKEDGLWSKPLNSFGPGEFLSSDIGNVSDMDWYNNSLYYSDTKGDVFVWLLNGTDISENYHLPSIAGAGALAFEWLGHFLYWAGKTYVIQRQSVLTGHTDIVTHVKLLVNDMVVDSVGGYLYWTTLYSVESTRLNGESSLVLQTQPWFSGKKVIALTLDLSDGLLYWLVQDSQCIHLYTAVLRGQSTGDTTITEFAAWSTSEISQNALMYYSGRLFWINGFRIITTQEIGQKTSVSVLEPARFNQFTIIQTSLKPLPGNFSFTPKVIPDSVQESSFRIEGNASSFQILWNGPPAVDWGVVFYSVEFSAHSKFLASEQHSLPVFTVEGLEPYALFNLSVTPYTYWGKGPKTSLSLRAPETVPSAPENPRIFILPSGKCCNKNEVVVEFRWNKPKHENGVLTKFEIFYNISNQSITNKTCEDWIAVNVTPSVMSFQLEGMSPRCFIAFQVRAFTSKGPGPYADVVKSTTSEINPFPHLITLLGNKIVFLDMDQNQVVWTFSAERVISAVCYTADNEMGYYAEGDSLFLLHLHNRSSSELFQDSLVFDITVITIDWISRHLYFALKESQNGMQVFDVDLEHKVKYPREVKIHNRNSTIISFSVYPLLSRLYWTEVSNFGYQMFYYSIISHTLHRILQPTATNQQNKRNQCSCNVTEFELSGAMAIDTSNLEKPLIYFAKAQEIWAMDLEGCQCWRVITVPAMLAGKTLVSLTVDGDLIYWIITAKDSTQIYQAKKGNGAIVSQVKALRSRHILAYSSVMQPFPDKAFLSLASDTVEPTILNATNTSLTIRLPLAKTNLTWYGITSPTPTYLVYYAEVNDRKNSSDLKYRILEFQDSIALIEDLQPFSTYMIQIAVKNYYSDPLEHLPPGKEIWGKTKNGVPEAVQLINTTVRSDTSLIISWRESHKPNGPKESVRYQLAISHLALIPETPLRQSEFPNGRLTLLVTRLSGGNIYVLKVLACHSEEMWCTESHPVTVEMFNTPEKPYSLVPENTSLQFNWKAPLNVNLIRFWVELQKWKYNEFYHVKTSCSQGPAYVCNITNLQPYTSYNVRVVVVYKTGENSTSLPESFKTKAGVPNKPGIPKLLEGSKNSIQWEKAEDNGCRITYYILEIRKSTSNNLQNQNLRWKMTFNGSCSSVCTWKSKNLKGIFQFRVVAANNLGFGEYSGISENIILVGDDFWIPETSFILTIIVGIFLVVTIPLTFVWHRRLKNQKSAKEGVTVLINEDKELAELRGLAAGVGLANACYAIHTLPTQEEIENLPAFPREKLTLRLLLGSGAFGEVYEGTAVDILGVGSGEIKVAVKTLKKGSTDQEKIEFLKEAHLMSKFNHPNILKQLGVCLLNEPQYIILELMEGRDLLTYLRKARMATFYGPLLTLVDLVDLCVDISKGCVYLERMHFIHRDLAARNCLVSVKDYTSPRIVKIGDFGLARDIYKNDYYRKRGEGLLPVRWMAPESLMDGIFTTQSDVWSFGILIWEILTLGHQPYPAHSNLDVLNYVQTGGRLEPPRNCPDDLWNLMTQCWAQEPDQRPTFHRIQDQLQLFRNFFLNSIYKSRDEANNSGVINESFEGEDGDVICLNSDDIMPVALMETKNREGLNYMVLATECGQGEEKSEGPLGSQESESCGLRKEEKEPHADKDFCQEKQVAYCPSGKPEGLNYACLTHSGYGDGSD
# methodSummary: Ba/F3-Ros1 cell proliferation assay, G2032R crizotinib-resistance mutant
# Type: cell-based, murine
# testContext: without IL-3
Class assignment keyed on Ba/3 Ros1 G2032R (-IL-3) pIC50, ranges low interval = under 6, middle interval = from 6 up to 7, high interval = 7 and over

// known answers, use as guide
[[record]]
molecule = "CC(C)c1ccc(COc2ccc(-c3c(-c4ccncc4)nn4c3C(=O)N(CCO)CC4)cc2F)cc1"
assignedcategory = "high interval"

[[record]]
molecule = "CC(C)c1ccc(COc2ccc(-c3c(-c4ccncn4)nn4c3C(=O)NCC4)cc2)cc1"
assignedcategory = "middle interval"

[[record]]
molecule = "c1cc(-c2nn3c(c2-c2ccc(OCc4ccc(C5CC5)cc4)cc2)CNCC3)ccn1"
assignedcategory = "low interval"

[[record]]
molecule = "CC(C)c1ccc(COc2ccc(-c3c(-c4ccncc4)nn4c3C(=O)N(CCO)CC4)c(F)c2)cc1"
assignedcategory = "high interval"

[[record]]
molecule = "COc1ccc(COc2ccc(-c3c(-c4ccncc4)nn4c3C(=O)NCC4)cc2)cc1"
assignedcategory = "low interval"

[[record]]
molecule = "CC(C)c1ccc(C2CCc3cc(-c4c(-c5ccncc5)nn5c4C(=O)N(CCO)CC5)ccc3O2)cc1 (stereo not shown)"
assignedcategory = "middle interval"

[[record]]
molecule = "CC(C)c1ccc(COc2ccc(-c3c(-c4ccncc4)nn4c3C(=O)N(CCO)CC4)c(C#N)c2)cc1"
assignedcategory = "high interval"

[[record]]
molecule = "CC(C)c1ccc(COc2ccc(-c3c(-c4ccncn4)nn4c3C(=O)N(CCO)CC4)cc2)cc1"
assignedcategory = "middle interval"


**Q:** Lab log: CC(C)c1ccc(COc2ccc(-c3c(-c4ccncc4)nn4c3C(=O)NCC4)cc2F)cc1 — assign Ba/3 Ros1 G2032R (-IL-3) pIC50 category
**A:** high interval

**Q:** Lab log: CC(C)(C#N)c1ccc(COc2ccc(-c3c(-c4ccncc4)nn4c3C(=O)NCC4)cc2)cc1 — assign Ba/3 Ros1 G2032R (-IL-3) pIC50 category
**A:** middle interval

---

BaF3-ROS1-IL3 pIC50 values by entry
# studySystem: Ba/F3 cells containing Ros1 wild-type protein (Homo sapiens, UniProt P08922, cells depend on it, form not given)
# Construct: The background only speaks of 'a number of different unrelated proteins' and names SLC34A2-ROS1 for HCC78 cells
# Sequence (P08922 whole entry, stated change not applied): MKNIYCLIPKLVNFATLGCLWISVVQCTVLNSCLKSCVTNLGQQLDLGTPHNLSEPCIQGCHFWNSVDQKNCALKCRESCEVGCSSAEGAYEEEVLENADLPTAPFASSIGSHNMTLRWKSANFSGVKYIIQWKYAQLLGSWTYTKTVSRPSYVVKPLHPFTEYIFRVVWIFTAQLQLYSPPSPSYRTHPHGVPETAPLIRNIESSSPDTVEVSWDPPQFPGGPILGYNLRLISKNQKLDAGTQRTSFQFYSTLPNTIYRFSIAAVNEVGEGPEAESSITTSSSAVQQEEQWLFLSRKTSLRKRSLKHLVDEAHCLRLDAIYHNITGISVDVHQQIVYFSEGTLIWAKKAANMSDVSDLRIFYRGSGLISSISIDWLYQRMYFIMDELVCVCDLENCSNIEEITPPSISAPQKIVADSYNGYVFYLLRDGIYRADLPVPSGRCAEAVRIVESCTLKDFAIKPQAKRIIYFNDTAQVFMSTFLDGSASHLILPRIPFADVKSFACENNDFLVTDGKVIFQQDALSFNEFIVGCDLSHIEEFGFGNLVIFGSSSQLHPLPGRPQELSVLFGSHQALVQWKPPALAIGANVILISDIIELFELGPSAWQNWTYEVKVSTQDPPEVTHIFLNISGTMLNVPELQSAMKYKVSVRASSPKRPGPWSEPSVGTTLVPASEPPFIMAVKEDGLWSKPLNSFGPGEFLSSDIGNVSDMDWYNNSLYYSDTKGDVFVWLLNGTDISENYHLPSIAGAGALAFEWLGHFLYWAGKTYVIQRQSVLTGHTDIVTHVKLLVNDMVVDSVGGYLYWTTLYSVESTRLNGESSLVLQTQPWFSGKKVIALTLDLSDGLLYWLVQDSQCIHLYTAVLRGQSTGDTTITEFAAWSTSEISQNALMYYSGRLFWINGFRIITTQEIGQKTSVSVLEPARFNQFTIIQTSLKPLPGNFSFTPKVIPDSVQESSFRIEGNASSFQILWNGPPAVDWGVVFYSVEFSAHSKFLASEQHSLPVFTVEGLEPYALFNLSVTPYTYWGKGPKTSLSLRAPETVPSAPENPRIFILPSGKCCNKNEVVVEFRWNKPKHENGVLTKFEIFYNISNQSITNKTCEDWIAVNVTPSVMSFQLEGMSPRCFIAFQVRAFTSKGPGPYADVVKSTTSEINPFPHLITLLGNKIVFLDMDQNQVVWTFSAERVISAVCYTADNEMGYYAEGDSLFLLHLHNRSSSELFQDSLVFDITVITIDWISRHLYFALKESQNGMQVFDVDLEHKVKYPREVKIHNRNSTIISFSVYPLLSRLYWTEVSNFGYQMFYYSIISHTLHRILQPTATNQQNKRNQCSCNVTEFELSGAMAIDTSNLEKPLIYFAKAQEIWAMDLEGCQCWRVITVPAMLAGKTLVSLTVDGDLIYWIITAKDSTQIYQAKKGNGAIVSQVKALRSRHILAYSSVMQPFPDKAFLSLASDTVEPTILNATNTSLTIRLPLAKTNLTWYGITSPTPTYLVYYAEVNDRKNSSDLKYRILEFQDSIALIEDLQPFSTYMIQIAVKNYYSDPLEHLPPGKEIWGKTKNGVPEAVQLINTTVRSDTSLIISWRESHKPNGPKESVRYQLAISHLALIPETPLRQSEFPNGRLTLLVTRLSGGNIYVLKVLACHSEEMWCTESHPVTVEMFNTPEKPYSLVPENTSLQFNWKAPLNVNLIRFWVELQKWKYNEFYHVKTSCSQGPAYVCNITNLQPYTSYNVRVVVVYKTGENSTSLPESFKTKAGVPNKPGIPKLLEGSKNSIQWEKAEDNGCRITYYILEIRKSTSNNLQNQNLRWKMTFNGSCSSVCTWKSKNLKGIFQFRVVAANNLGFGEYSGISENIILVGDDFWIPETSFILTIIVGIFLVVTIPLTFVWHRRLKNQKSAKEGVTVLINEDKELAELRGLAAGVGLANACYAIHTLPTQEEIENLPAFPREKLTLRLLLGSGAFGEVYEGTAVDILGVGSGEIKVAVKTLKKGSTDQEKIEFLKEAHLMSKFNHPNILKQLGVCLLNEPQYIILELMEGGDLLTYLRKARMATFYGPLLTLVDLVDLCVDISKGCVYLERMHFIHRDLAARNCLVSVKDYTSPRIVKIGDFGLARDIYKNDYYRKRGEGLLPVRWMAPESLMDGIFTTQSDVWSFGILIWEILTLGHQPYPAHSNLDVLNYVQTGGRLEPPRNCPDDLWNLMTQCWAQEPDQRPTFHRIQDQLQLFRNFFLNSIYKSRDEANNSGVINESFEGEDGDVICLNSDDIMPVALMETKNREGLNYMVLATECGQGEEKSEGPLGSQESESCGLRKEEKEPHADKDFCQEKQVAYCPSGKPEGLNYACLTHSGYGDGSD
# methodSummary: Ba/F3-Ros1 cell proliferation assay, wild-type Ros1
# Type: cell-based, murine
# testContext: without IL-3
The response must contain the number and no unit.

These solved cases illustrate the format of a correct answer.
[[record]]
compound = "O=C1c2c(-c3ccc(OCc4ccc(C5CC5)c(F)c4)cc3)c(-c3ccncc3)nn2CCN1CCO [Compound 137]"
reportedmeasurement = 6.8

[[record]]
compound = "CC(C)c1ccc(COc2ccc(-c3c(-c4ccnc(N)c4)nn4c3C(=O)NCC4)cc2)cc1 [Compound 7]"
reportedmeasurement = 7.4

[[record]]
compound = "CC(C)c1ccc(COc2ccc(-c3c(-c4ccncc4)nn4c3C(=O)N(CCN)CC4)cc2)cc1 [Compound 59]"
reportedmeasurement = 6.4

[[record]]
compound = "O=C1NCCCn2nc(-c3ccncc3)c(-c3ccc(OCc4ccc(C5CC5)cc4)cc3)c21 [Compound 228]"
reportedmeasurement = 6.3


**Q:** For the compound O=C1NCCn2nc(-c3ccncc3)c(-c3ccc(OCc4ccccc4)cc3)c21 [Compound 130] , what BaF3-ROS1-IL3 pIC50 is on record?
**A:** 5.8

**Q:** For the compound CNCCc1cc(COc2ccc(-c3c(-c4ccncc4)nn4c3C(=O)NCC4)cc2)ccc1C(C)C [Compound 234] , what BaF3-ROS1-IL3 pIC50 is on record?
**A:** 7.1

**Q:** For the compound CNC(=O)CN1CCn2nc(-c3ccncc3)c(-c3ccc(OCc4ccc(C(C)C)cc4)cc3)c2C1=O [Compound 63] , what BaF3-ROS1-IL3 pIC50 is on record?
**A:** 7.1

**Q:** For the compound CC(C)(O)c1ccc(COc2ccc(-c3c(-c4ccncc4)nn4c3C(=O)NCC4)cc2)cc1 [Compound 9] , what BaF3-ROS1-IL3 pIC50 is on record?
**A:** 6.4
